// data source = the RNAGym collection of RNA variant scans (doi:10.7554/elife.90254)

Each entry below carries its reported self-cleavage.
B1: LINE1-mini (parent)
chain: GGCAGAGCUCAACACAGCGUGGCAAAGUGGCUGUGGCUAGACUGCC

# Variants of: B1
# assay.remarks: self-cleavage, relative activity (ratio to wild type); higher = more cleavage; in vitro, sequencing; the parent is a self-cleaving ribozyme
Field format: numeric only.

# count of solved cases: 5
sequence_code="GGCAGAGCUCAACGCAGCUUGGCAAAGUGGCUGUGGCUAGACUGCC [A14G G19U]" number=0.54
sequence_code="GGCCGGGCUCAACACAGCGUGGCAAAGUGGCUGUGGCUAGACUGCC [A4C A6G]" number=0.37
sequence_code="GGCGGAGCUCAAUACAGCGUGGCAAAGUGGCUGUGGCUAGACUGCC [A4G C13U]" number=0.23
sequence_code="GGCAGGGCUCAACACACCGUGGCAAAGUGGCUGUGGCUAGACUGCC [A6G G17C]" number=0.09
sequence_code="GGCAGAGCUCAACACAGCGUCGCAAAGUGGCCGUGGCUAGACUGCC [G21C U32C]" number=1.82

Query: May I ask what self-cleavage has been recorded for GACAGAGCUCAACACAGCGUGGCAAAGUGGCUGUGGCUAGAUUGCC [G2A C42U] ?
Response: 0.44
